Where these numbers come from: PubChem BioAssay (NCI)

So I've got a bunch of compounds here, and I need their GI50 values.
Test system: MDA-MB-435

1. Nc1ncc(-c2ccc3ncnc(Nc4ccc(F)c(Cl)c4)c3c2)cn1
2.31 µM

Hi, could you look up GI50 for each item in my list?
1. CN1CCN(c2ccc(Nc3cc(-c4cccc(-n5ccc6cc(C7CC7)cc(F)c6c5=O)c4CO)cn(C)c3=O)nc2)CC1
2. Clc1cc2c(c(CSc3nc4ccccc4n4cccc34)c1)OCOC2
3. O=c1c(F)cn(Cc2ccc(C34CC5CC(CC(C5)C3)C4)c(O)c2)c(=O)n1Cc1ccc(C23CC4CC(CC(C4)C2)C3)c(O)c1
4. COc1cc(N=Nc2ccc(O)c3ncccc23)c2ncccc2c1
5. COc1cc(C(=O)N2CCN(C(=O)c3cc(OC)c(OC)c(OC)c3)C2=S)cc(OC)c1OC
6. NC(N)=N/N=C/c1c(Cl)cccc1Cl
7. O=C(c1ccco1)c1c(C(F)(F)F)nc2ccc(Cl)cc2[n+]1[O-]

Response:
1. 3.28 µM
2. > 100 µM
3. 14.4 µM
4. 4.64 µM
5. 13.1 µM
6. 15.3 µM
7. > 100 µM

====

System: MCF7 breast
Experiment: NCI tumour cell line growth inhibition, 48 h; in the data active means GI50 below about 0.43 µM; inactive means the rest
Permitted responses: active, inactive

1) CC1(C)OC2C(CO[Si](C)(C)C(C)(C)C)OC(n3c(I)c(C#C[Si](C)(C)C)c(=O)[nH]c3=O)C2O1 (stereo not given)
inactive
2) CNCCOC(=O)/C=C1\CC[C@H]2[C@@H]([C@@H](O)C(=O)[C@@H]3[C@]2(C)CC[C@H](O)[C@]3(C)C(=O)OC)[C@H]1C
active
3) S=c1[nH]c(=S)c2cc3ccccc3nc2[nH]1
inactive
4) Cc1nc(Nc2cccnc2)sc1C(=O)/C=C/c1ccc(F)cc1
inactive
5) NC(N)=N/N=C/c1c(Cl)cccc1Cl
inactive

Query: What was the test verdict on "COc1ccc(-c2nnc3n(C)c(=O)c4ccccc4n23)cc1N" ?
Response: active

Query: What was the test verdict on "CN(C)CC[C@H](CSc1ccccc1)Nc1ccc(S(=O)(=O)NC(=O)c2ccc(N3CCN(Cc4ccccc4-c4ccc(Cl)cc4)CC3)cc2)cc1[N+](=O)[O-]" ?
Response: inactive

Query: What was the test verdict on CCn1c(O)c(/C=N/NC(=O)C(C)c2ccc(CC(C)C)cc2)sc1=S (stereo not given) ?
Response: active

Query: What was the test verdict on "COC(=O)[C@]12CC[C@@H](C)[C@H](C)[C@@H]1C1=CC[C@@H]3[C@@]4(C)C[C@@H](O)[C@H](O)[C@@](C)(CO)C4=CC[C@@]3(C)[C@]1(C)CC2" ?
Response: inactive

Query: What was the test verdict on "CCC[CH2][Sn]([CH2]CCC)([O]C(=O)c1ccc(OC)c(OC)c1OC)[O][Sn]([CH2]CCC)([CH2]CCC)[O]C(=O)c1ccc(OC)c(OC)c1OC" ?
Response: active

====

Tested on: T-47D breast
Assay: NCI tumour cell line growth inhibition, 48 h
So I've got a bunch of compounds here, and I need their TGI values.

Hi, could you look up TGI for each item in my list?
1. CC(C)c1cc2c(c(O)c1O)[C@@]1(C(=O)O)CCCC(C)(C)[C@@H]1CC2
2. COc1cc(N=Nc2ccc(O)c3ncccc23)c2ncccc2c1
3. COc1cc(N(CCC#N)CCC#N)ccc1/C(N=Nc1ccc(Cl)cc1)=N/NC(=O)c1cc(Br)ccc1O
4. CCCCCC#CCOC(=O)C(=[N+]=[N-])P(=O)(c1ccccc1)c1ccccc1
5. Cc1cc(N[C@@H]2CCC[C@H](Nc3ccnc4cc(Cl)ccc34)C2)nc(N2CCCCCC2)n1
6. Cc1ccc(C2=CC(=O)OC(C[P+](c3ccccc3)(c3ccccc3)c3ccccc3)(c3ccccc3)O2)cc1 (stereo unspecified)
7. Cc1nc(C)c(C(=O)NNC(=O)C[N+](C)(C)C)cc1C(=O)NNC(=O)C[N+](C)(C)C

Response:
["55 µM", "> 100 µM", "> 150 µg/mL", "> 10 µM", "5.38 µM", "41.1 µM", "> 100 µM"]

Hi, could you look up TGI for each item in my list?
1. C/C(N=NC(=S)N1CC2CCC(CC2)C1)=C1\C=CC=CN1O
2. C=C(C(=O)OCC)C(=O)OCC

Response:
["94.8 µM", "> 100 µM"]

Hi, could you look up TGI for each item in my list?
1. S=C1NC2=C(CSC/C2=C\c2cccc(Br)c2)C(c2cccc(Br)c2)N1 (stereo unspecified)
2. C/C(C[n+]1ccccc1)=N\N=C(N)N

Response:
> 100 µM
> 100 µM
